Tested on: anti-desmoglein-3 scFv antibody binding to human DSG3
assayNotes: inhibitors of anti-DSG3 scFv binding to DSG3, pilot screen, biochemical, validation compound set, bead-based, flow cytometry (AID 588368);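 note: signal is the median channel fluorescence of bead-bound GFP antibody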
conditionNotes: Protein G beads, DSG3-Fc, scFv-GFP binding, at 10 µM, stronger effect = lower value
Peptide text beside a SMILES is read from it. * marks the point of attachment. Boc = CC(C)(C)OC(=O)*
experimentalReadout: binding (% of control) (%)
Report the value in % with no unit label.

The recorded binding (% of control) for entry "COc1ccc(N2C(=O)[C@@H]3Cc4ccccc4CN3C2=O)cc1" equals 107

The recorded binding (% of control) for entry "CCOC(=O)[C@H](CCc1ccccc1)N[C@@H](C)C(=O)N1CCC[C@H]1C(=O)O" equals 95.3

The recorded binding (% of control) for entry "O=C(CCNNC(=O)c1ccncc1)NCc1ccccc1" equals 99

The recorded binding (% of control) for entry CC(C)CC(NC(=O)C1CCCN1C(=O)OC(C)(C)C)C(=O)NCC(N)=O (stereo not drawn) (Boc-Pro-Leu-Gly-NH2; configuration not given here) equals 102

The recorded binding (% of control) for entry Cc1ccc(C(CC(=O)NCc2ccco2)c2ccc(OC(C)C)cc2)cc1 (centres undefined) equals 97.7

The recorded binding (% of control) for entry "O=c1ccn([C@@H]2O[C@H](CO)[C@@H](O)[C@H]2O)c(=O)[nH]1" equals 102

The recorded binding (% of control) for entry CCN(CC)C1=C(Cl)C(=O)C(Cl)C12OCCO2 (centres undefined) equals 95.6

The recorded binding (% of control) for entry "C[C@@H]1C[C@H]2[C@@H]3CCC4=CC(=O)C=C[C@]4(C)[C@@]3(F)[C@@H](O)C[C@]2(C)[C@@]1(O)C(=O)COP(=O)(O)O" equals 96.9

The recorded binding (% of control) for entry C[C@H](NC(=O)OC(C)(C)C)C(=O)NCC1CCC(C(=O)O)CC1 (some centres undefined) equals 99.5

* * *

Give GFP response relative to DMSO for every item shown.
assayNotes: LAP4-GFP expression modulators in yeast, confirmation, cell-based, cherry picks, flow cytometry, mother/daughter gates (AID 2271);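 note: ratio of sample to DMSO plate mean so 100% equals DMSO level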
conditionNotes: S. cerevisiae LAP4-GFP strain, 3 h, measured here: daughter cell gate response, at 10 µM, stronger effect = higher value, 100 means same as DMSO control
Report the value in % with no unit label.

The recorded GFP response relative to DMSO for entry "Cc1c(C(=O)Nc2ccccc2)cnn1-c1ccccc1" equals 101

The recorded GFP response relative to DMSO for entry "COCCn1c(=N)c(C(=O)NCc2ccco2)cc2c(=O)n3ccccc3nc21" equals 96

The recorded GFP response relative to DMSO for entry "CCCCC(=O)O[C@]1(C(=O)CO)CC[C@H]2[C@@H]3CCC4=CC(=O)CC[C@]4(C)[C@H]3[C@@H](O)C[C@@]21C" equals 101

The recorded GFP response relative to DMSO for entry "Cc1cc(NC(=O)c2ccc3c(c2)OCCO3)ccc1NC(=O)c1cc2ccccc2o1" equals 89.8

The recorded GFP response relative to DMSO for entry "Cc1cc(-c2csc3nc[nH]c(=S)c23)cc(C)c1C" equals 114

* * *

assayNotes: LAP4-GFP expression modulators in yeast, confirmation, cell-based, cherry picks, flow cytometry, mother/daughter gates (AID 2271);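 note: ratio of sample to DMSO plate mean so 100% equals DMSO level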
conditionNotes: S. cerevisiae LAP4-GFP strain, 3 h, measured here: daughter cell gate response, at 10 µM, stronger effect = higher value, 100 means same as DMSO control
Give GFP response relative to DMSO for every item shown.
Report the value in % with no unit label.

The recorded GFP response relative to DMSO for entry "O=C1c2ccsc2SCCN1Cc1c(F)cccc1Cl" equals 110

The recorded GFP response relative to DMSO for entry O=C(Nc1ccc(F)cc1)C1CCCN(c2cnccn2)C1 (stereo unspecified) equals 99.1

The recorded GFP response relative to DMSO for entry Cc1cccc(NC(=O)CC2SC(=O)N(c3ccccc3)C2=O)c1 (stereo unspecified) equals 128

The recorded GFP response relative to DMSO for entry "NC(=O)c1ccccc1OCC(=O)c1ccc(Cl)cc1" equals 96

The recorded GFP response relative to DMSO for entry Cc1ccc(S(=O)(=O)N2CC3CCC2C3)cc1 (stereo unspecified) equals 97.2

The recorded GFP response relative to DMSO for entry "O=C(OCC(=O)N1CCN(C(=O)c2ccco2)CC1)c1cc(-c2cccc(Br)c2)nc2ccccc12" equals 117

The recorded GFP response relative to DMSO for entry "COc1cc(C(=O)ON=C2C3CC4CC(C3)CC2C4)cc(OC)c1OC" equals 102

The recorded GFP response relative to DMSO for entry "CCN(CC)C(=O)c1ccc(-c2cccs2)s1" equals 106

The recorded GFP response relative to DMSO for entry "Cc1ccc(C(=O)NNC(=S)NC(=O)COc2ccccc2)cc1" equals 186

The recorded GFP response relative to DMSO for entry "COc1ccc(NC(=O)CCc2nc(-c3ccccc3F)no2)cc1" equals 101

The recorded GFP response relative to DMSO for entry "Cc1ccc(S(=O)(=O)/N=C(\Sc2ccccc2)c2ccccc2)cc1" equals 134

* * *

assayNotes: modulators of CIT2-GFP expression in yeast, confirmation, S. cerevisiae, GFP fusion, cherry picks, mother/daughter gates (AID 2274)
conditionNotes: S. cerevisiae CIT2-GFP strain, flow cytometry, 3 h; measured here: daughter cell gate; at 10 µM; stronger effect = higher value
experimentalReadout: GFP response, % of DMSO (%)
Report the value in % with no unit label.

The recorded GFP response, % of DMSO for entry "O=S(=O)(c1cccc(C(F)(F)F)c1)c1ccc(O)cn1" equals 106

The recorded GFP response, % of DMSO for entry "CCCc1nnc(N2C(=O)c3cccc4cccc(c34)C2=O)s1" equals 106

The recorded GFP response, % of DMSO for entry "Cc1[nH]c(-c2ccccn2)nc(=S)c1Cl" equals 115

The recorded GFP response, % of DMSO for entry "O=C(c1ccccc1Br)N1CCN(c2ccccc2)CC1" equals 94.8

The recorded GFP response, % of DMSO for entry "O=C(c1ccc2ccccc2c1)N1CCN(c2ccc(O)cc2)CC1" equals 103

The recorded GFP response, % of DMSO for entry "O=S(=O)(c1ccc(Oc2ccccc2)cc1)N1CCOCC1" equals 94.8

* * *

assayNotes: modulators of CIT2-GFP expression in yeast, confirmation, S. cerevisiae, GFP fusion, cherry picks, mother/daughter gates (AID 2274)
conditionNotes: S. cerevisiae CIT2-GFP strain, flow cytometry, 3 h; measured here: daughter cell gate; at 10 µM; stronger effect = higher value
experimentalReadout: GFP response, % of DMSO (%)
Report the value in % with no unit label.

The recorded GFP response, % of DMSO for entry "N#Cc1ccc(Sc2ccccn2)c([N+](=O)[O-])c1" equals 99.7

The recorded GFP response, % of DMSO for entry "CCSc1nnc(NC(=O)c2nc(S(=O)(=O)Cc3ccc(F)cc3)ncc2Cl)s1" equals 110

The recorded GFP response, % of DMSO for entry "Cc1ccc(NS(=O)(=O)c2ccc(CCC(=O)N3CCOCC3)cc2)cc1" equals 103

The recorded GFP response, % of DMSO for entry "Cc1cccc(N=c2c([N+](=O)[O-])nn(-c3ccc(Cl)cc3)n2O)c1" equals 103

The recorded GFP response, % of DMSO for entry "COc1ccccc1-c1noc(CCC(=O)Nc2cccc(C)c2)n1" equals 98.3

The recorded GFP response, % of DMSO for entry "Cc1ccccc1N1C(=O)c2cccc3c(N(C)CCO)ccc(c23)C1=O" equals 102

The recorded GFP response, % of DMSO for entry "Cc1cccc(OCCN2CSC(=S)N(C)C2)c1" equals 130

The recorded GFP response, % of DMSO for entry "CSc1nc(N2CCN(c3ccccc3Cl)CC2)c2ccccc2n1" equals 97.6

The recorded GFP response, % of DMSO for entry CS(=O)(=O)Nc1ccc(C2=NN(S(C)(=O)=O)C(c3ccccc3)C2)cc1 (stereo unspecified) equals 112

The recorded GFP response, % of DMSO for entry "O=C(O)c1cccc(S(=O)(=O)N2Cc3ccccc3C2)c1" equals 99.3

The recorded GFP response, % of DMSO for entry "Cc1ccn2c(NC3CCCCC3)c(-c3cccc(-c4cccc(Cl)c4)c3)nc2c1" equals 98.3

* * *

Give aptamer binding inhibition for every item shown.
testTarget: Beta-adrenergic receptor kinase 1 (Homo sapiens) (UniProt P25098)
Sequence (P25098 whole entry, looked up): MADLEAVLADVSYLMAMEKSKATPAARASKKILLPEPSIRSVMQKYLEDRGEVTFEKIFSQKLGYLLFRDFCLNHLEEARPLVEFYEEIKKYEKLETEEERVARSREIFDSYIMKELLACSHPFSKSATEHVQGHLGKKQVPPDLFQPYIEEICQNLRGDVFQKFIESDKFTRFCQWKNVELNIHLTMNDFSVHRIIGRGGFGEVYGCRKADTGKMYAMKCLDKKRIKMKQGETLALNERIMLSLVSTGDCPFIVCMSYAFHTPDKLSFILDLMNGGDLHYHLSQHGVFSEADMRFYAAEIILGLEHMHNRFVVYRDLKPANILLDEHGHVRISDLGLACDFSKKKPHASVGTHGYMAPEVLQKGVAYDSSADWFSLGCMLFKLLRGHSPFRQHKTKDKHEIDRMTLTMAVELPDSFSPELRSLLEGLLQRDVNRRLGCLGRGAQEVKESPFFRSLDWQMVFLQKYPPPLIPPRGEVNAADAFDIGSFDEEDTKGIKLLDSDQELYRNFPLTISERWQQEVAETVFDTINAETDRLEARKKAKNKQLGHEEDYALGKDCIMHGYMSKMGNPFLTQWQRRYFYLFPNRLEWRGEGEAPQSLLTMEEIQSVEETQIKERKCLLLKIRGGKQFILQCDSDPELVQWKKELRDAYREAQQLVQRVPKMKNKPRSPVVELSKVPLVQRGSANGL
assayNotes: GRK2 binders displacing RNA aptamer, biochemical, validation, human GRK2, bead flow cytometry (AID 488806)
conditionNotes: bead-bound GRK2, FAM-aptamer displacement, at 10 µM, stronger effect = higher value
The source made the active and inactive calls.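 Rule for the calls: active = aptamer binding inhibition above 30%, about 3 SD of noise from non-fluorescent compounds; inactive = inhibition at or below 30%.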

The recorded aptamer binding inhibition for entry "Cc1ncc([N+](=O)[O-])n1CCO" equals 1% (inactive)

The recorded aptamer binding inhibition for entry "CNCCCC12CCC(c3ccccc31)c1ccccc12" equals -11% (inactive)

The recorded aptamer binding inhibition for entry "COc1ccc2c(c1)c(CC(=O)O)c(C)n2C(=O)c1ccc(Cl)cc1" equals 1% (inactive)

The recorded aptamer binding inhibition for entry CCCC1O[C@@H]2C[C@H]3[C@@H]4CCC5=CC(=O)C=C[C@]5(C)[C@H]4[C@@H](O)C[C@]3(C)[C@]2(C(=O)CO)O1 (stereo partly specified) equals 4% (inactive)

The recorded aptamer binding inhibition for entry "COC(=O)C1=C(C)NC(C)=C(C(=O)OC)C1c1ccccc1[N+](=O)[O-]" equals -2% (inactive)

The recorded aptamer binding inhibition for entry "CC(=O)O[C@H]1CC[C@H]2[C@@H]3CCc4cc(O)ccc4[C@H]3CC[C@]12C" equals 1% (inactive)

The recorded aptamer binding inhibition for entry "COc1ccc(OC)c(-c2oc3ccccc3c(=O)c2O)c1" equals 2% (inactive)

The recorded aptamer binding inhibition for entry COC1CCCCC1Nc1ccc(C)c(C)c1 (stereo unspecified) equals 5% (inactive)

The recorded aptamer binding inhibition for entry "Clc1ccc(OCCCN2CCCCC2)c(Br)c1" equals -2% (inactive)

The recorded aptamer binding inhibition for entry "CCCCC1C(=O)N(c2ccccc2)N(c2ccccc2)C1=O" equals 0% (inactive)

The recorded aptamer binding inhibition for entry "O=c1[nH]cnc2c1ncn2[C@@H]1O[C@H](CO)[C@@H](O)[C@H]1O" equals 2% (inactive)

The recorded aptamer binding inhibition for entry CSc1ccc2c(c1)N(CCC1CCCCN1C)c1ccccc1S2 (stereo unspecified) equals -7% (inactive)

The recorded aptamer binding inhibition for entry "O=C(CCNNC(=O)c1ccncc1)NCc1ccccc1" equals -1% (inactive)

The recorded aptamer binding inhibition for entry "Cc1cnc(C(=O)NCCc2ccc(S(=O)(=O)NC(=O)NC3CCCCC3)cc2)cn1" equals 2% (inactive)

The recorded aptamer binding inhibition for entry "CC(=O)Oc1ccc2occ(/C=N/c3cc(=O)[nH]c(=S)[nH]3)c(=O)c2c1" equals 1% (inactive)

The recorded aptamer binding inhibition for entry "CC(C)Cn1c(=S)[nH]c2cc(C(=O)O)ccc2c1=O" equals 4% (inactive)

The recorded aptamer binding inhibition for entry COc1cccc(C2CCCN2Cc2nc(CCC(C)C)no2)c1 (stereo unspecified) equals 0% (inactive)

The recorded aptamer binding inhibition for entry CC(=O)O[C@H]1C(=O)[C@@]2(C)[C@H]([C@H](OC(=O)c3ccccc3)[C@]3(O)C[C@H](OC(=O)[C@H](O)C(NC(=O)c4ccccc4)c4ccccc4)C(C)=C1C3(C)C)[C@]1(OC(C)=O)CO[C@@H]1C[C@@H]2O (stereo partly specified) equals 3% (inactive)

The recorded aptamer binding inhibition for entry "C/C=C/Cn1c(SC)nc2c1c(=O)[nH]c(=O)n2C" equals 0% (inactive)

The recorded aptamer binding inhibition for entry "CN1CCC(=C2c3ccccc3CC(=O)c3sccc32)CC1" equals -2% (inactive)

The recorded aptamer binding inhibition for entry COc1ccc(CCN=C(N)C(C)c2ccccc2)cc1OC (stereo unspecified) equals 4% (inactive)

Reference source for all entries: PubChem BioAssay
